System: MS2 coat protein
Test: apparent KD of MS2 coat protein; designed switch direction (-1 OFF switch, 1 ON switch): 1; higher = weaker reporter binding
Conditions: Eterna round: R95; input ligand: microRNA oligo, concentration not stated
Classes (apparent KD of MS2 coat protein): L (below 40 nM), M (40 nM to below 200 nM), H (200 nM or more)

Category lookup for the sequence AAGUAACAUGAGGAUCACCCAUGUGAGGUGAGCGUAGGAUAUCGAGAAGGAAGGGUGGAGCGAGAAGGACGAAGGA [JR_SS1_Sub0102] (puzzle: Same State 1)
M

One more sequence: GAGGGACAUGAGGAUCACCCAUGUGGAGGGAGUAAAGGAUAUUAGUGUGGGAAAGUAGGGUAAGAAGGUUGAUUGG [JR_SS1_Sub084] (puzzle: Same State 1)
M

One more sequence: AGUCCAGCCUAAGCUGGACAAAAGCAUGUACAUGAGGAUCACCCAUGUUCAUGUACAAGCUUUUUGCUCGUCUUAAU [Mat - hsa-mir-208a - Mod of JL - 60] (puzzle: Sensor for hsa-mir-208a)
L

One more sequence: ACCCAAAGUAUAUGGGAACAAGCUUUUUAACAUGAGGAUCACCCAUGUACUCGUCUUGUAAGCAGUCGAAAGACUGC [Sensor 100 - 1] (puzzle: Sensor for hsa-mir-208a)
L

One more sequence: ACAAGCUUUUCUGUAUUGAAAGGUGGGAUACAUGAGGAUCACCCAUGUUUUUUUGAAAAUAAUAUUCCUCGUCUUAU [JR_SHM208A_Sub091] (puzzle: Sensor for hsa-mir-208a)
L

One more sequence: UUUAGUUGCGGGCAGGAUAUGUAUUAAAAUACAUGAGGAUCACCCAUGUGAGGUCAUAACGACCUACAGAAGGGCCAAUCGCGAC [Laonerce - 15] (puzzle: Same State 2)
M
